Assay Summary: Pharmacokinetics in vivo in mice, single intravenous or single oral administration, plasma LC-MS/MS
Condition Context: mouse, Intravenous injection (1 mg/kg), female Balb/c Nude mice, read-out: Half-life T1/2 (converted)
Measurement Label: half-life
Please answer in the form of a number followed by its unit of measurement.

In: Need half-life, item C[C@@H]1COCCN1c1cc(-c2ccnn2C)c2c(F)cnc(-c3ccn[nH]3)c2n1 [Example 1]
Out: 31.7 min

###

# IC50 listing for each entry below
System: tumor cell line LoVo
Assay Summary: in vitro LoVo cell proliferation inhibition assay (CellTiter-Glo cell viability)
Type: cell-based
Condition Context: Homo sapiens, LoVo cells
The reply should contain only the number, in nM.

{"Entry Smiles": "C[C@@H]1COCCN1c1cc(-c2ccncc2F)c2c(F)cnc(-c3ccn[nH]3)c2n1", "Experimental Target": "tumor cell line LoVo", "IC50 / nM": 80}
{"Entry Smiles": "Cc1n[nH]c(C)c1-c1cc(N2CCOC[C@H]2C)nc2c(-c3ccn[nH]3)ncc(F)c12", "Experimental Target": "tumor cell line LoVo", "IC50 / nM": 99}

Read the next record carefully.
In: Need IC50, item "C[C@@H]1COCCN1c1cc(C2=CCOCC2)c2c(F)cnc(-c3ccn[nH]3)c2n1"
Out: 82
